Entry source: patent US7402691B2

- Test system: Musca domestica
- method summary: Pesticidal test against Musca domestica, filter paper with sucrose bait (Test Example 6)
- Assay type: in vivo
- condition summary: 500 ppm, 0.7 ml on filter paper, ten female adults, after 24 hours, read-out: mortality
property measured: mortality at 500 ppm
# do not omit the unit; it follows the number

Recorded mortality at 500 ppm, per entry:
structure_smiles_string=N#CC(C#N)(CCC(F)(F)F)Cc1ccc(F)c(F)c1 value_measured=100%
structure_smiles_string=N#CC(C#N)(CCC(F)(F)C(F)(F)F)Cc1ccc(Cl)cc1 value_measured=100%
structure_smiles_string=N#CC(C#N)(CCC(F)=C(F)F)Cc1ccc(OC(F)(F)F)cc1 value_measured=100%
structure_smiles_string=COc1ccc(CC(C#N)(C#N)CCC(F)(F)F)cc1 value_measured=100%
structure_smiles_string=N#CC(C#N)(CCC(F)(F)F)Cc1cccc(F)c1 value_measured=100%
structure_smiles_string=N#CC(C#N)(CCC(F)=C(F)F)Cc1ccccc1 value_measured=100%

Go through the list and state mortality at 500 ppm for each entry.
1. N#CC(C#N)(CCC(F)(F)F)Cc1ccc(F)cc1Cl
2. N#CC(C#N)(CCC(F)(F)F)Cc1ccc(Cl)cc1
3. N#CC(C#N)(CCC(F)(F)F)Cc1cc(F)cc(F)c1
4. N#CC(C#N)(CCC(F)(F)C(F)(F)F)Cc1ccc(OC(F)(F)F)cc1
5. N#Cc1ccc(CC(C#N)(C#N)CCF)cc1
6. N#CC(C#N)(CCC(F)(F)F)Cc1ccc(Cl)c(Cl)c1

["100%", "100%", "100%", "100%", "100%", "100%"]
